test system: NO production in macrophage RAW 264.7 cells; assay: Inhibition of LPS-induced NO production in RAW 264.7 macrophages (Griess); assay type: cell-based; conditions: Mus musculus, RAW264.7; RAW 264.7 cells, 1 μg/mL LPS, 24 h, Griess reagent; mean of three experiments ± SD; read-out: NO Production (IC50)
IC50 values for the compounds below.

# COMPOUND, SYSTEM NAME, IC50
measured = [
    ("COc1cc2c(cc1-c1coc3c4c(c(OC)cc3c1=O)OC(C)(C)C=C4)OCO2 [Compound 5, ichthynone]", "NO production in macrophage RAW 264.7 cells", "> 100 µM"),
    ("COc1cc2c(=O)c(-c3ccc4c(c3)OCO4)coc2c2c1OC(C)(C)C=C2 [Compound 6, durmillone]", "NO production in macrophage RAW 264.7 cells", "> 100 µM"),
    ("CC1(C)C=Cc2c(ccc3c(=O)c(-c4ccc5c(c4)OCO5)coc23)O1 [Compound 7, calopogoniumisoflavone B]", "NO production in macrophage RAW 264.7 cells", "> 100 µM"),
]
